# TARGET OF ASSAY: KRAS (G12C) and SOS1 (Homo sapiens, UniProt P01116, C118S/C51S/C80L/G12C)
# Construct: KRAS (G12C) 1-169, N-terminal 6His-tag for purification; 6His (N, cleaved yes)
# Sequence (P01116 1-169 isoform P01116-2 G12C/C51S/C80L/C118S): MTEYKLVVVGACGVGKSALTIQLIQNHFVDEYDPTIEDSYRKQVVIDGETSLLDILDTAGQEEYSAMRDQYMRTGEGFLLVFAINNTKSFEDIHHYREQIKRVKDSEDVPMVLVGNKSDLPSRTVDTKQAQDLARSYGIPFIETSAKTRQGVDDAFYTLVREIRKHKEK
# TEST NAME: KRAS::SOS1 AlphaScreen binding assay, KRAS G12C
READOUT TYPE: pIC50
The read-out pIC50 is expressed as -log10 of concentration in moles per litre.

Task item: Requested read-out: pIC50. Entry: COCCCN1CCCN(c2nccc(-c3noc([C@@]4(C)CCCc5sc(N)c(C#N)c54)n3)n2)[C@@H](C)C1 [Example V-2]
Reply: 8.22

Task item: Requested read-out: pIC50. Entry: CC(C)N1CCCN(c2nccc(-c3cc([C@@]4(C)CCCc5sc(N)c(C#N)c54)on3)n2)[C@@H](C)C1 [Example V-26]
Reply: 8.15

Task item: Requested read-out: pIC50. Entry: C[C@H]1CN(C)CCCN1c1nccc(-c2noc([C@@]3(C)CCCc4sc(N)c(C#N)c43)n2)n1 [Example V-5]
Reply: 8.10

Task item: Requested read-out: pIC50. Entry: C[C@H](Oc1nccc(-c2noc([C@@]3(C)CCCc4sc(N)c(C#N)c43)n2)n1)[C@@H]1CCCN1C [Example V-10]
Reply: 8.15

Task item: Requested read-out: pIC50. Entry: C[C@H]1CN(C)CCN1c1nccc(-c2cc([C@@]3(C)CCCc4sc(N)c(C#N)c43)on2)n1 [Example V-27]
Reply: 7.62

Task item: Requested read-out: pIC50. Entry: CC(C)N1CCCN(c2nccc(-c3noc([C@@]4(C)CCCc5sc(N)c(C#N)c54)n3)n2)[C@@H](C)C1 [Example V-9]
Reply: 8.30

Task item: Requested read-out: pIC50. Entry: C[C@H](Oc1ccnc(-c2cc([C@@]3(C)CCCc4sc(N)c(C#N)c43)no2)n1)[C@@H]1CCCN1C [Example V-25]
Reply: 7.85

Task item: Requested read-out: pIC50. Entry: C[C@H](Oc1cccc(-c2noc([C@@]3(C)CCCc4sc(N)c(C#N)c43)n2)n1)[C@@H]1CCCN1C [Example V-8]
Reply: 8.05

Task item: Requested read-out: pIC50. Entry: C[C@H]1CN(CC2CC2)CCCN1c1nccc(-c2noc([C@@]3(C)CCCc4sc(N)c(C#N)c43)n2)n1 [Example V-3]
Reply: 8.22

Task item: Requested read-out: pIC50. Entry: C[C@H](Oc1ccnc(-c2cc([C@@]3(C)CCCc4sc(N)c(C#N)c43)on2)n1)[C@@H]1CCCN1C [Example V-24]
Reply: 8.40

Task item: Requested read-out: pIC50. Entry: C[C@H]1CNCCCN1c1nccc(-c2noc([C@@]3(C)CCCc4sc(N)c(C#N)c43)n2)n1 [Example V-6]
Reply: 7.82

Task item: Requested read-out: pIC50. Entry: C[C@H]1CN(C)CCN1c1cccc(-c2noc([C@@]3(C)CCCc4sc(N)c(C#N)c43)n2)n1 [Example V-1]
Reply: 7.51
